# SYSTEM: Furin (Homo sapiens)
# Sequence (P09958 whole entry): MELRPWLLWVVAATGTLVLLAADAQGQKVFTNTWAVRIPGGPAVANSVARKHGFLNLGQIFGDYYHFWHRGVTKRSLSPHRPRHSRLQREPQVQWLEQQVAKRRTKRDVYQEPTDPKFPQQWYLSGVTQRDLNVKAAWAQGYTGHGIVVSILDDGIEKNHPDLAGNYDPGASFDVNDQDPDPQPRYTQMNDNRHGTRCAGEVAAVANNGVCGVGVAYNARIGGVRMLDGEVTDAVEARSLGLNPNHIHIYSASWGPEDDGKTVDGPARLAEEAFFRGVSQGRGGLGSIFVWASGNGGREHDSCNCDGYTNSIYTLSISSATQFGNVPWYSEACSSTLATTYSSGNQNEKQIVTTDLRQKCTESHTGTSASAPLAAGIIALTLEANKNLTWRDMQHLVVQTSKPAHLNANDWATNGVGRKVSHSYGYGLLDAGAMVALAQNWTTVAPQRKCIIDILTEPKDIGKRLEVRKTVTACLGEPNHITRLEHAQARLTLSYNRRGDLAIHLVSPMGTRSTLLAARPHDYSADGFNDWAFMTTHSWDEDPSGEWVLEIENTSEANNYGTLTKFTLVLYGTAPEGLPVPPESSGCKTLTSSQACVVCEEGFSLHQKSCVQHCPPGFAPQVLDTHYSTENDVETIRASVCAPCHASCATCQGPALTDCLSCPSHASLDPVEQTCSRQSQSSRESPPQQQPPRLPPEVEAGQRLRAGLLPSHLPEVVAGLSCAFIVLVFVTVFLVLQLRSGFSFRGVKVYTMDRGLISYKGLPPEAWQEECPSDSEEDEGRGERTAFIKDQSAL
Non-standard residues stand in square brackets, D forms with d. Residues, ends and D or L forms follow the SMILES beside them. Sar = CNCC(=O)O
REPORTED PROPERTY: Ki

Check out these entries, answers already filled in.
{"COMPOUND": "C[C@H](N)C(=O)N1CCC[C@H]1C(=O)N[C@@H](CCCNC(=N)N)C(=O)N[C@@H](CCC(=O)O)C(=O)N[C@@H](CCCNC(=N)N)C(=O)N[C@@H](CCCNC(=N)N)C(=O)N[C@@H](CCCNC(=N)N)C(=O)N[C@@H](CCCCN)C(=O)N[C@@H](CCCCN)C(=O)N[C@@H](CCCNC(=N)N)C(=O)N(C)CC(=O)O (H-APRERRRKKR[Sar]-OH)", "SYSTEM": "Furin (Homo sapiens)", "RESULT VALUE": "> 100 nM"}
{"COMPOUND": "C[C@@H](O)[C@H](N)C(=O)N1CCC[C@H]1C(=O)N[C@@H](CCCNC(=N)N)C(=O)NCCCCCC(=O)N[C@@H](CCCNC(=N)N)C(=O)N[C@@H](CCCNC(=N)N)C(=O)N[C@@H](CCCNC(=N)N)C(=O)N[C@@H](CCCCN)C(=O)N[C@@H](CCCCN)C(=O)N[C@@H](CCCNC(=N)N)C(=O)NCC(N)=O", "SYSTEM": "Furin (Homo sapiens)", "RESULT VALUE": "> 100 nM"}

Query compound follows.
Reported Ki for C[C@@H](O)[C@H](N)C(=O)N1CCC[C@H]1C(=O)N[C@@H](CCCN=C(N)N)C(=O)NC1(C(=O)N[C@@H](CCCN=C(N)N)C(=O)N[C@@H](CCCN=C(N)N)C(=O)N[C@@H](CCCN=C(N)N)C(=O)N[C@@H](CCCCN)C(=O)N[C@@H](CCCCN)C(=O)N[C@@H](CCCN=C(N)N)C(=O)NCC(N)=O)CCCC1 : what is it?
> 100 nM

----------
# SYSTEM: Proprotein convertase subtilisin/kexin type 5 (Homo sapiens)
# Sequence (Q92824 whole entry): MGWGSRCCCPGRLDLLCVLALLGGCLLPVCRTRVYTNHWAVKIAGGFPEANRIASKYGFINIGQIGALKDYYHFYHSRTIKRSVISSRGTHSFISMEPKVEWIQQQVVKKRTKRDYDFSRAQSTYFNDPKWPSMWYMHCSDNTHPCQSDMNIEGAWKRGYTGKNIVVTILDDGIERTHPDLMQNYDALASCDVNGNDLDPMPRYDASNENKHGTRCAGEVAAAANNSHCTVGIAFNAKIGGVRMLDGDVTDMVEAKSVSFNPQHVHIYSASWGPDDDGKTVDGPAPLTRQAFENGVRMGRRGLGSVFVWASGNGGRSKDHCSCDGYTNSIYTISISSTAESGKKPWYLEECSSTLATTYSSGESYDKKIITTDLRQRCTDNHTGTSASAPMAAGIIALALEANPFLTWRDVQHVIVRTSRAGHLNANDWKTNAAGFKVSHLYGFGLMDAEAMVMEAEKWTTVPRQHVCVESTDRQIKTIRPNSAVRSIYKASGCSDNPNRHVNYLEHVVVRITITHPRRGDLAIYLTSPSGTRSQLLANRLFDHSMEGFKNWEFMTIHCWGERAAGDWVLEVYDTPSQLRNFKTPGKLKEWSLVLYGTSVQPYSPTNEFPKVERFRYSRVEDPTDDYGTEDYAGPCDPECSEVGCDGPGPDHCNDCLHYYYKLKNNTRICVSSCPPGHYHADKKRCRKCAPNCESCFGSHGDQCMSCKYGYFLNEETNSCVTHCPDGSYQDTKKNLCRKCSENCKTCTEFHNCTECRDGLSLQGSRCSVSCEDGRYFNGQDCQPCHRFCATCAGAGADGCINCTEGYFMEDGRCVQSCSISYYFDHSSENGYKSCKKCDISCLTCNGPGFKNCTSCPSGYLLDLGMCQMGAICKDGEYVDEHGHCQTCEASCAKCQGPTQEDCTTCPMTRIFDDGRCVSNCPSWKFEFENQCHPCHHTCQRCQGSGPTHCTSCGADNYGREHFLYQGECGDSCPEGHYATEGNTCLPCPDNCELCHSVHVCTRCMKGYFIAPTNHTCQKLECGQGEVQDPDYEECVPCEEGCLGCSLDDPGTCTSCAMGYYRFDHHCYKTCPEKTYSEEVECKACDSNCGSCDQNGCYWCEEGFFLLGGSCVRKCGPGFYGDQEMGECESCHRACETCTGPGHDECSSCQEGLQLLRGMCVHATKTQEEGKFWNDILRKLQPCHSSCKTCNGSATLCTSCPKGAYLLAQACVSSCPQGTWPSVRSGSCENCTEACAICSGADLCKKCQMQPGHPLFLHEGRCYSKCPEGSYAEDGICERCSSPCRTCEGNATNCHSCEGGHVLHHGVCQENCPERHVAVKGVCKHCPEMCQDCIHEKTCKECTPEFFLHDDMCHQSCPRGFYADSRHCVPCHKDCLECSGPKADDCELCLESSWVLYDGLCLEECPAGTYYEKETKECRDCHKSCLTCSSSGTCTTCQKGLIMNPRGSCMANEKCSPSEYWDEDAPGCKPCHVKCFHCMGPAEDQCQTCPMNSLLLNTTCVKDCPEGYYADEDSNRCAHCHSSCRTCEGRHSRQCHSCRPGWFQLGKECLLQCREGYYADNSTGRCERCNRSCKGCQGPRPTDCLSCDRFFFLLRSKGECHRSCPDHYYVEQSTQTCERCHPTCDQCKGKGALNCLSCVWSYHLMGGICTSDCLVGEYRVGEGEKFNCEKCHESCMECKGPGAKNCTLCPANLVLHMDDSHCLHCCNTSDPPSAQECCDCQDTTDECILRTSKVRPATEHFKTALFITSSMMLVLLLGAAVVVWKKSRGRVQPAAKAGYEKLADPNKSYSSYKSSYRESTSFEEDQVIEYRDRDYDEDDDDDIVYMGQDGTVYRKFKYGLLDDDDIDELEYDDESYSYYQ
Response field label: string, one of Criterion met (Ki strictly below 0.5 µM) or Criterion not met.

{"SUBSTANCE": "H-TPQRARRRKKRT-OH", "SYSTEM": "Proprotein convertase subtilisin/kexin type 5 (Homo sapiens)", "CATEGORY LABEL": "Criterion met"}
{"SUBSTANCE": "H-TPRARRRKKRT-NH2", "SYSTEM": "Proprotein convertase subtilisin/kexin type 5 (Homo sapiens)", "CATEGORY LABEL": "Criterion met"}
{"SUBSTANCE": "H-TPQRARRRKKRF-OH", "SYSTEM": "Proprotein convertase subtilisin/kexin type 5 (Homo sapiens)", "CATEGORY LABEL": "Criterion not met"}
{"SUBSTANCE": "H-TPQRARRRKKRW-OH", "SYSTEM": "Proprotein convertase subtilisin/kexin type 5 (Homo sapiens)", "CATEGORY LABEL": "Criterion met"}

Ki under 0.5 µM? Item: H-TPQRARRRKKRY-OH
Criterion not met

----------
Furin (Homo sapiens): recorded pKi for assorted substances
pKi: −log10 of the molar value.

{"SUBSTANCE": "H-TPRWRRRKKRG-OH", "pKi": "< 7.00"}
{"SUBSTANCE": "H-TARERRRKKRG-NH2", "pKi": "< 7.00"}
{"SUBSTANCE": "H-TPRERRRKAA-OH", "pKi": "< 7.00"}
{"SUBSTANCE": "H-TPRGRRRKKRG-NH2", "pKi": "< 7.00"}

Reported pKi for H-TPQRFRRRKKRG-OH : what is it?
< 7.00

What would you report for H-TPQRARRRKKRS-OH ?
< 7.00
